Overview of recorded log2 fold change of degron read counts for various sequences
# subject_of_test: T1, CRBN, Q96SW2
# T1 chain: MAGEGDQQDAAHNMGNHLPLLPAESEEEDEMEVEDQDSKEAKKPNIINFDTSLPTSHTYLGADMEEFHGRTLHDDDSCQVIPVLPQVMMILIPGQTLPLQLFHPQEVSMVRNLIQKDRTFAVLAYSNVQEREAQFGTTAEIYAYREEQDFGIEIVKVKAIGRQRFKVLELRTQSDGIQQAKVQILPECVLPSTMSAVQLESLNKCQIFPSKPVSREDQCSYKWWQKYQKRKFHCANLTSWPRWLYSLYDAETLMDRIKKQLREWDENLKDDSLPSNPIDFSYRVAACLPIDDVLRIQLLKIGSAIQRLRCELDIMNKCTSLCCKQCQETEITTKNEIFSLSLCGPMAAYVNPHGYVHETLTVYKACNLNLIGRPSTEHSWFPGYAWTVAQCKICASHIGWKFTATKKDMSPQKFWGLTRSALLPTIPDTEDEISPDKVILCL
# method_description: log2 fold change of degron read counts, EGFP-low vs EGFP+ sorted cells (limma voom), compound-induced degradation; higher = more compound-induced degradation of the degron-EGFP fusion; degrons are variants of IKZF1/3 zinc finger 2; compound dose not given here;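 further: pooled lentiviral library of zinc finger degron-EGFP fusions in mCherry-positive Jurkat cells, FACS-sorted after compound exposure, with degron abundance counted by next-generation sequencing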
# settings: Jurkat; 18 h; compound: compound 19 (5-tert-butyl-thalidomide)
The full ranking holds about 8,300 sequences; the median of “log2 fold change of degron read counts, EGFP-low vs EGFP+ sorted cells (limma voom), compound-induced degradation” is about -1.1, and the highest 2% start at about 3.2. Shown is part of a subset that was picked to be rich in the highest values.
Just the number, please.

FACEICGRIFTQKGNLLRHIKL [46F_47A_49E_50I_52G_53R_54I_55F_67L_, Q9UKT9] : 0.366
FYCEVCGAHFTQKGNLLRHIKL [46F_47Y_49E_50V_52G_53A_54H_55F_67L_, Q9UKT9] : 3.12

Read off the recorded log2 fold change of degron read counts for FKCEICGATFTQKGNLLRHIKL [46F_47K_49E_50I_52G_53A_54T_55F_67L_, Q9UKT9]
-1.26

Read off the recorded log2 fold change of degron read counts for FCCPICGHFFTQKGNLLRHIKL [46F_47C_49P_50I_52G_53H_54F_55F_67L_, Q9UKT9]
-1.42

Read off the recorded log2 fold change of degron read counts for FFCEICGATFTQKGNLLRHIKL [46F_47F_49E_50I_52G_53A_54T_55F_67L_, Q9UKT9]
3.27

Read off the recorded log2 fold change of degron read counts for FMCEICGATFTQKGNLLRHIKL [46F_47M_49E_50I_52G_53A_54T_55F_67L_, Q9UKT9]
-1.21

Read off the recorded log2 fold change of degron read counts for FDCEICGATFTQKGNLLRHIKL [46F_47D_49E_50I_52G_53A_54T_55F_67L_, Q9UKT9]
1.71

Read off the recorded log2 fold change of degron read counts for FTCPQCGAWFTQKGNLLRHIKL [46F_47T_49P_50Q_52G_53A_54W_55F_67L_, Q9UKT9]
-1.97

Read off the recorded log2 fold change of degron read counts for FYCEICGATFTQKGNLLRHIKL [46F_47Y_49E_50I_52G_53A_54T_55F_67L_, Q9UKT9]
3.58

Read off the recorded log2 fold change of degron read counts for FRCEICGRNFTQKGNLLRHIKL [46F_47R_49E_50I_52G_53R_54N_55F_67L_, Q9UKT9]
-2.69

Read off the recorded log2 fold change of degron read counts for FCCNQCGHNFTQKGNLLRHIKL [46F_47C_49N_50Q_52G_53H_54N_55F_67L_, Q9UKT9]
-2.54

Read off the recorded log2 fold change of degron read counts for FVCEVCGAHFTQKGNLLRHIKL [46F_47V_49E_50V_52G_53A_54H_55F_67L_, Q9UKT9]
-0.244

Read off the recorded log2 fold change of degron read counts for FRCNQCGASFTQKGNLLRHIKL [46F_47R_49N_50Q_52G_53A_54S_55F_67L_, Q9UKT9]
-1.71

Read off the recorded log2 fold change of degron read counts for FLCEICGATFTQKGNLLRHIKL [46F_47L_49E_50I_52G_53A_54T_55F_67L_, Q9UKT9]
-1.3

Read off the recorded log2 fold change of degron read counts for FICDVCGASFTQKGNLLRHIKL [46F_47I_49D_50V_52G_53A_54S_55F_67L_, Q9UKT9]
-1.49

Read off the recorded log2 fold change of degron read counts for FACEICGATFTQKGNLLRHIKL [46F_47A_49E_50I_52G_53A_54T_55F_67L_, Q9UKT9]
3.33

Read off the recorded log2 fold change of degron read counts for FSCEICGATFTQKGNLLRHIKL [46F_47S_49E_50I_52G_53A_54T_55F_67L_, Q9UKT9]
2.83

Read off the recorded log2 fold change of degron read counts for FNCNQCGAKFTQKGNLLRHIKL [46F_47N_49N_50Q_52G_53A_54K_55F_67L_, Q9UKT9]
-2.03

Read off the recorded log2 fold change of degron read counts for LYCEICGFGCTQKGNLLRHIKL [46L_47Y_49E_50I_52G_53F_54G_55C_67L_, Q9UKT9]
2.73

Read off the recorded log2 fold change of degron read counts for FRCEVCGAHFTQKGNLLRHIKL [46F_47R_49E_50V_52G_53A_54H_55F_67L_, Q9UKT9]
-1.19
